Target: OX1 (Homo sapiens, UniProt O43613)
Construct: expressed in transfected cells; host or cells: CHO (CHO-OX1, kept under selection antibiotic)
Sequence (O43613 1-425): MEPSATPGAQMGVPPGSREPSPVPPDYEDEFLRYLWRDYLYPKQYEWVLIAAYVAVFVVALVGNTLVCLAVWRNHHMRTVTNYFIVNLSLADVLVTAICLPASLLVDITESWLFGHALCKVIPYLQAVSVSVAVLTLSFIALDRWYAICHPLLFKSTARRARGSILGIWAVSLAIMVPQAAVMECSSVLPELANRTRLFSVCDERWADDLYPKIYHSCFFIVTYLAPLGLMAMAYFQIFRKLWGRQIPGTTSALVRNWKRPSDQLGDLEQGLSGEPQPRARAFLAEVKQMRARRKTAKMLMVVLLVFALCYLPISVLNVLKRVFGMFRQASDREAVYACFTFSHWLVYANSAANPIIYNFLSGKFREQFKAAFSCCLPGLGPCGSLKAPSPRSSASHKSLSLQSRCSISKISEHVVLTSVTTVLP
Assay: Orexin receptor cell-based functional assay, [Ca2+]i by FLIPR, CHO-OX1 cells
Settings: CHO-OX1 cells, [Ca2+]i by FLIPR, antagonist dose-range 0.1 nM-10 μM, EC90 of OXA; read-out: OX1
property_label: pIC50
Please express pIC50 as -log10 of the molar concentration.

1. Cc1ccc(-n2nccn2)c(C(=O)N2CCC[C@@H](C)[C@H]2CNc2nc(C(F)(F)F)cs2)c1 [Example A123]    6.39

query: Quickly give me recorded pIC50 for Cc1ccc(-c2ncccn2)c(C(=O)N2CCC[C@@H](C)[C@H]2CNc2nc3ccccc3o2)c1 [Example A204]
result: 8.52

query: Quickly give me recorded pIC50 for Cc1ccc(C(=O)N2CCC[C@@H](C)[C@H]2CNc2ccc(C(F)(F)F)cn2)c(-c2ncccn2)c1F [Example A358]
result: 8.30

query: Quickly give me recorded pIC50 for Cc1ccc(-n2cccn2)c(C(=O)N2CCC[C@@H](C)[C@H]2CNc2ncc(C(F)(F)F)cn2)n1 [Example A166]
result: 8.10

Where do these numbers come from? They come from patent US9440982B2.
